Origin of measurements: patent US10611740B2

Target: Gal4-RORγ-LBD (Homo sapiens, UniProt P51449)
Construct: expressed in transfected cells; host or cells: HEK-293 cells (pcDNA3.1neo plasmid)
Sequence (P51449 269-508 limits assumed): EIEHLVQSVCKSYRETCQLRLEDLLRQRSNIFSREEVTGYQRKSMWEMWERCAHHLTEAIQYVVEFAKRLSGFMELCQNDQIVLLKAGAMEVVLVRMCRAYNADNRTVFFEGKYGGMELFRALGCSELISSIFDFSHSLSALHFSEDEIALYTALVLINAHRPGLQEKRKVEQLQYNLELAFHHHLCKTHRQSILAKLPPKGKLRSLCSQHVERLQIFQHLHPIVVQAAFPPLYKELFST
Assay: Gal4-RORγ Luciferase Reporter Assay in HEK-293T Cells
Type: cell-based
Conditions: HEK-293 cells, 2 μM ursolic acid
For each record, write down the corresponding EC50.

compound=O=C(O)C1(C[C@H]2CN(S(=O)(=O)c3cccc(C(F)(F)F)c3)c3cc(-c4cc(F)cc(OC(F)F)c4)ccc3O2)CCOCC1 reportedmeasurement="< 500 nM"
compound="Cc1cc(Cl)cc(-c2ccc3c(c2)N(S(=O)(=O)c2cccc(C(F)(F)F)c2)C[C@H](CC(C)(C)C(=O)O)O3)c1 [Compound 32BB]" reportedmeasurement="< 500 nM"
compound="C[C@H](CC(=O)O)[C@H]1CN(S(=O)(=O)c2cccc(C(F)(F)F)c2)c2cc(-c3cc(F)cc(F)c3Cl)ccc2O1 [Compound 80B]" reportedmeasurement="500 to 5000 nM"
compound="O=C(O)[C@]1(C[C@H]2CN(S(=O)(=O)c3cccc(C(F)(F)F)c3)c3cc(-c4cc(F)ccc4F)ccc3O2)C[C@@](O)(CO)C1 [Compound 89E]" reportedmeasurement="500 to 5000 nM"
compound=O=C(O)[C@@]1(C[C@H]2CN(S(=O)(=O)c3cccc(C(F)(F)F)c3)c3cc(-c4cc(F)cc(OC(F)F)c4)ccc3O2)CCNC1=O reportedmeasurement="< 500 nM"

Would you be so kind as to report EC50 for each listed record?
1. CC(C)(C[C@H]1CN(S(=O)(=O)c2cccc(C(F)(F)F)c2)c2cc(-c3cc(OC(F)F)ccc3F)ccc2O1)C(=O)O [Compound 32BI]
2. O=C(O)CC[C@H]1CN(S(=O)(=O)c2cccc(C(F)(F)F)c2)c2cc(-c3cc(F)cc(F)c3)cc(F)c2O1 [Compound 22K]
3. CC(=O)N[C@H]1C[C@](C[C@H]2CN(S(=O)(=O)c3cccc(C(F)(F)F)c3)c3cc(-c4cc(F)cc(OC(F)F)c4)ccc3O2)(C(=O)O)C1
4. COc1cc(Cl)cc(-c2ccc3c(c2)N(S(=O)(=O)c2cccc(C(F)(F)F)c2)C[C@H](CC2(C(=O)O)CCOCC2)O3)c1 [Compound 78L]
5. C[C@@H](C[C@H]1CN(S(=O)(=O)c2cccc(C(F)(F)F)c2)c2cc(-c3cccc(Cl)c3F)ccc2O1)C(=O)O [Compound 46E]

Response given:
< 500 nM
< 500 nM
< 500 nM
< 500 nM
500 to 5000 nM

Would you be so kind as to report EC50 for each listed record?
1. O=C(O)CC[C@H]1CN(S(=O)(=O)c2cccc(C(F)(F)F)c2)c2cc(-c3cccc(Cl)c3F)cc(F)c2O1 [Compound 22I]
2. O=C(O)CC[C@H]1CN(S(=O)(=O)c2cccc(C(F)(F)F)c2)c2cc(-c3cc(F)cc(F)c3Cl)cc(F)c2O1 [Compound 22H]
3. O=C(O)C1(C[C@H]2CN(S(=O)(=O)c3cccc(C(F)(F)F)c3)c3cc(-c4cccc(F)c4Cl)ccc3O2)CCOCC1 [Compound 78M]
4. CC(C)(C[C@H]1CN(S(=O)(=O)c2cccc(C(F)(F)F)c2)c2cc(-c3cccc(F)c3C(F)(F)F)ccc2O1)C(=O)O [Compound 32BC]

Response given:
1. < 500 nM
2. < 500 nM
3. < 500 nM
4. < 500 nM

Would you be so kind as to report EC50 for each listed record?
1. COc1cc(S(=O)(=O)N2C[C@H](CCC(C)(C)C(=O)O)Oc3ccc(-c4cc(F)cc(OC)c4F)cc32)ccc1F [Compound 32S]
2. CC(=O)N[C@H]1C[C@H]([C@H]2CN(S(=O)(=O)c3cccc(C(F)(F)F)c3)c3cc(-c4cc(F)ccc4F)ccc3O2)C1 [Compound 60M]
3. COc1cc(S(=O)(=O)N2C[C@H](CNS(=O)(=O)N3CCCC3)Oc3ccc(-c4cc(F)ccc4F)cc32)ccc1F [Compound 45F]
4. O=C(O)C1(C[C@H]2CN(S(=O)(=O)c3cc(F)cc(C(F)(F)F)c3)c3cc(-c4cc(F)cc(OC(F)F)c4)ccc3O2)COC1 [Compound 51I]
5. CC(C)(C[C@H]1CN(S(=O)(=O)c2cccc(C(F)(F)F)c2)c2cc(-c3c(Cl)cccc3Cl)ccc2O1)C(=O)O [Compound 32AU]

Response given:
1: < 500 nM; 2: < 500 nM; 3: < 500 nM; 4: < 500 nM; 5: < 500 nM

Would you be so kind as to report EC50 for each listed record?
1. CC(C)(C[C@H]1CN(S(=O)(=O)c2cccc(C(F)(F)F)c2)c2cc(-c3cc(F)ccc3C(F)(F)F)ccc2O1)C(=O)O [Compound 32AV]
2. CC(C)(C[C@H]1CN(S(=O)(=O)c2cccc(C(F)(F)F)c2)c2cc(-c3ccccc3OC(F)(F)F)ccc2O1)C(=O)O [Compound 32Z]
3. O=C(O)C1(C[C@H]2CN(S(=O)(=O)c3cncc(C(F)(F)F)c3)c3cc(-c4cc(F)ccc4F)ccc3O2)COC1 [Compound 51K]
4. O=C(O)CC[C@H]1CN(S(=O)(=O)c2cccc(C(F)(F)F)c2)c2cc(-c3cccc(Cl)c3F)c(Cl)cc2O1 [Compound 22J]
5. CC(C)(C[C@H]1CN(S(=O)(=O)c2cccc(C(F)(F)F)c2)c2cc(-c3cc(F)cc(Cl)c3F)ccc2O1)C(=O)O [Compound 32AI]

Response given:
< 500 nM
< 500 nM
500 to 5000 nM
< 500 nM
< 500 nM

Challenge: Need EC50, item CC(C)(C[C@@H]1CN(S(=O)(=O)c2cccc(C(F)(F)F)c2)c2cc(-c3cc(F)cc(Cl)c3F)ccc2O1)C(=O)O [Compound 32AO]
Response given: 500 to 5000 nM
